test.description: Antioxidant activity assessed as DPPH scavenging activity after 20 min by spectrophotometry
Assay type: functional
Each entry below carries its reported IC50.
assay.readout: IC50 (µg/mL)

structure=Cc1c(-c2ccccc2)oc2ccccc2c1=O units_text=µg/mL endpoint_value=106.38
structure=Cc1c(-c2ccc(N(C)C)cc2)oc2cc(O)ccc2c1=O units_text=µg/mL endpoint_value=58.82
structure=COc1ccc2c(=O)c(C)c(-c3ccc(Cl)cc3)oc2c1 units_text=µg/mL endpoint_value=80.64
structure=Cc1c(-c2ccccc2Cl)oc2ccccc2c1=O units_text=µg/mL endpoint_value=192.3
structure=COc1ccc2c(=O)c(C)c(-c3ccccc3)oc2c1 units_text=µg/mL endpoint_value=200
structure=Cc1ccccc1-c1oc2ccccc2c(=O)c1C units_text=µg/mL endpoint_value=156.25
structure=Cc1c(-c2ccccc2F)oc2ccccc2c1=O units_text=µg/mL endpoint_value=208.3
structure=COc1cccc(-c2oc3ccccc3c(=O)c2C)c1 units_text=µg/mL endpoint_value=156.25
structure=Cc1c(-c2ccc(N(C)C)cc2)oc2ccccc2c1=O units_text=µg/mL endpoint_value=104.16
structure=Cc1c(-c2ccc(O)cc2)oc2ccccc2c1=O units_text=µg/mL endpoint_value=104
structure=Cc1cccc(-c2oc3ccccc3c(=O)c2C)c1 units_text=µg/mL endpoint_value=250
structure=Cc1c(-c2ccc([N+](=O)[O-])cc2)oc2ccccc2c1=O units_text=µg/mL endpoint_value=131.57
structure=Cc1c(-c2ccc(Cl)cc2)oc2ccccc2c1=O units_text=µg/mL endpoint_value=98.04
structure=Cc1ccc(-c2oc3ccccc3c(=O)c2C)cc1 units_text=µg/mL endpoint_value=102.04
structure=Cc1c(-c2ccc(F)cc2)oc2ccccc2c1=O units_text=µg/mL endpoint_value=113.64
structure=Cc1c(-c2ccc(Br)cc2)oc2ccccc2c1=O units_text=µg/mL endpoint_value=111.11
structure=COc1ccccc1-c1oc2ccccc2c(=O)c1C units_text=µg/mL endpoint_value=142.86
structure=Cc1c(-c2ccccc2Br)oc2ccccc2c1=O units_text=µg/mL endpoint_value=70.42
structure=Cc1c(-c2ccccc2O)oc2ccccc2c1=O units_text=µg/mL endpoint_value=79.37
structure=O=C1O[C@H]([C@@H](O)CO)C(O)=C1O units_text=µg/mL endpoint_value=17.6
structure=COc1ccc(-c2oc3ccccc3c(=O)c2C)cc1 units_text=µg/mL endpoint_value=100
